System: CEM cells HIV-1 protection, formazan growth assay
testMethodNotes: NCI AIDS Antiviral Assay
conditionLabel: measured here: growth of uninfected CEM cells
quantityKind: IC50 (µM)
Numbers only, in µM.

Provide IC50 values for the following items, in order.
1. CCOC(=O)/C(=C\c1cccc(Cl)c1)P(=O)(OCC)OCC
2. C/C(=N/NC(=S)N1CCCCC1)c1ccccc1O

1: 81.3; 2: 91.2

====

System: CEM cells HIV-1 protection, formazan growth assay
testMethodNotes: NCI AIDS Antiviral Assay
conditionLabel: measured here: growth of uninfected CEM cells
quantityKind: IC50

Reference set (2 entries):
Nc1ncnc2c1nnn2C1CCC(CP(=O)(O)O)C1 (stereo not drawn)
> 200 µM
CN(C)c1ccc(-c2c3ccccc3nc3ccccc23)cc1
> 4.57 µM

Now take the following compound into account.
Measured IC50, O=S1CSCS1 (stereo not drawn) : > 200 µM

====

Test system: CEM cells HIV-1 protection, formazan growth assay
testMethodNotes: NCI AIDS Antiviral Assay
conditionLabel: measured here: growth of uninfected CEM cells
For each entry below, report its IC50 value.

List reported IC50 for each of these compounds:
1. CCc1n[nH]c(=O)n1NC(=O)c1ccccc1C(=O)O
2. Cc1ccc(S(=O)(=O)NC(CSSCC(NS(=O)(=O)c2ccc(C)cc2)C(=O)OC(C)(C)C)C(=O)OC(C)(C)C)cc1 (centres undefined)
3. COC1=NS(=O)(=O)C(C)C(C)(C)O1 (centres undefined)
4. CCOC(=O)/C(C#N)=C/c1ccc(Br)cc1

> 200 µM
> 200 µM
> 427 µM
> 93.3 µM

====

Tested on: CEM cells HIV-1 protection, formazan growth assay
testMethodNotes: NCI AIDS Antiviral Assay;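 active = compounds giving half or more protection of infected cells from virus-caused growth loss, again on retest; inactive = the rest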
Field 'call' accepts active, inactive

// known answers, use as guide
Cc1cn(C2CC(OC=O)C(CO)O2)c(=O)[nH]c1=O (stereo not drawn)
active
CCCCc1c2c(nc3c1CCCC3O)/C(=C/c1ccccc1)CCC2 (stereo not drawn)
inactive
N#CC1([N+](=O)[O-])C=C1c1ccccc1 (stereo not drawn)
inactive

Please state the recorded outcome for this molecule: "Nc1ccc(-c2ncc3cc(-c4cccc(-c5cc6cnc(-c7ccc(N)cc7)nc6c6ccccc56)c4)c4ccccc4c3n2)cc1"
inactive

What did this assay record as the result for COC(=O)C(Cc1nc2ccccc2[nH]c1=O)C(NO)C(=O)Nc1c(Cl)cc([N+](=O)[O-])cc1Cl (stereo not drawn) ?
inactive

Which outcome was assigned to "Cc1cc(=O)oc2cc(O)cc(O)c12" in this test?
inactive

====

Would you mind telling me the reported pIC50 of each entry?
Tested on: CEM cells HIV-1 protection, formazan growth assay
testMethodNotes: NCI AIDS Antiviral Assay
conditionLabel: measured here: growth of uninfected CEM cells
pIC50: −log10 of the molar value.

Cc1ccc(C(=O)OCC(C)C)cc1N=NN(C)C
< 4.56

Take each entry in turn and give its pIC50.
1. O=S1(=O)C/C(=C\N2CCOCC2)c2ccccc21
2. CSC1=N/C(=C\c2ccc(C)cc2)C(=O)N1CN1CCCCC1
3. C=CCO/N=C(\OC(=O)c1ccc([N+](=O)[O-])cc1)c1ccccc1

["< 3.70", "< 3.70", "< 3.82"]

Would you mind giving pIC50 for every compound in the list below?
1. CC(C)CCCC(C)[C@H]1CC[C@H]2[C@H]3CC[C@@H]4C[C@H](CCC=C(c5cc(Cl)c(O)c(C(=O)O)c5)c5cc(Cl)c(O)c(C(=O)O)c5)CC[C@]4(C)[C@H]3CC[C@]12C (stereo not given in full)
2. COc1cc2c(=O)c3ccccc3oc2c(O)c1OC

1. < 3.70
2. < 3.70

// for each compound below, give its pIC50
1. CCOC(=O)Nc1nc2cc(C(=O)OCC)n(C)c2s1
2. O=C(/C(=C\c1ccc(Cl)cc1)c1ccccc1)c1ccccc1
3. Clc1cccc(Sc2ccccc2)c1
4. C#CCOc1cc2c(c3oc(=O)cc(CCC)c13)[C@@H](O)[C@H](C)[C@@H](C)O2

1. < 3.70
2. < 4.93
3. < 4.63
4. < 3.70
